Parameter switch fluorescence ratio: see the listing below.
# Tested on: ATP;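 further: ATP exposure 15 min at 22 °C before imaging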
# protocol.notes: switch fluorescence ratio, 500 uM ATP over buffer (Cy3 cluster intensity, sum of 5 cycles each) (fold (ratio)); higher = stronger signal-on switching upon ATP binding; sequences stand for … in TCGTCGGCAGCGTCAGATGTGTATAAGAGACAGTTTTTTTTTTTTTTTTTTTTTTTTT…TC
# measurement.context: aptamer strand: ATP DNA aptamer (quencher-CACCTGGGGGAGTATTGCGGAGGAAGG + anchor), 100 nM annealed; ATP concentration: 500 uM
readout.label: switch fluorescence ratio

>>> recorded_measurement("CGAAGAACTA")
1.02
>>> recorded_measurement("CCAGGATGCG")
0.971
>>> recorded_measurement("GCTTTTGGCT")
0.992
>>> recorded_measurement("ACGGTAGAAA")
1.01
>>> recorded_measurement("AGATCGAACT")
0.994
>>> recorded_measurement("TGTAAGGTCG")
1.01
>>> recorded_measurement("AGGGGCTATT")
1.01
>>> recorded_measurement("TAAGTTAGTT")
0.979
>>> recorded_measurement("TTATTGACGA")
0.992
>>> recorded_measurement("TTGGATGGGA")
1
>>> recorded_measurement("CATTTGAGTG")
1
>>> recorded_measurement("GATAATTAGG")
1.01
>>> recorded_measurement("CACTAGTAAA")
0.998
>>> recorded_measurement("GGGTGGGAGG")
0.991
>>> recorded_measurement("TTATGGGCGT")
1.02
>>> recorded_measurement("GGTGGTGTCG")
1
